Data credit: PubChem BioAssay AID602254

tested system: Golgi-associated PDZ and coiled-coil motif-containing protein (Homo sapiens)
test protocol: blockers of CAL PDZ–TMR peptide complex – biochemical, fluorescence polarization, untagged CAL PDZ, cherry-pick, set 2, dose response (AID 602254);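 further: more negative means stronger blocking of peptide binding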
setup conditions: Purified CAL PDZ; series mostly up to 60 µM
Out of some 1,000 compounds screened, fewer than 10 were called active. Only a sample is shown. Entries with a potency or affinity are not part of this list.
result type: outcome

// solved cases for outcome follow
>  <compound>
CCCCN1CC(COCc2ccccc2)Oc2cccc(F)c2S1(=O)=O (stereo not given)

>  <tested system>
Golgi-associated PDZ and coiled-coil motif-containing protein (Homo sapiens)

>  <outcome>
inactive

$$$$
>  <compound>
CC(=O)Nc1sc(NC(=O)c2ccc(C)cc2)nc1-c1cccs1

>  <tested system>
Golgi-associated PDZ and coiled-coil motif-containing protein (Homo sapiens)

>  <outcome>
inactive

$$$$
>  <compound>
CC(C)(C)c1cc(C(=O)NNc2cccc(Cl)c2)n(Cc2ccccc2)n1

>  <tested system>
Golgi-associated PDZ and coiled-coil motif-containing protein (Homo sapiens)

>  <outcome>
inactive

$$$$
>  <compound>
O=C(Nc1ccnn1C1CCN(CC2CC=CCC2)CC1)c1ccccc1Cl (stereo not given)

>  <tested system>
Golgi-associated PDZ and coiled-coil motif-containing protein (Homo sapiens)

>  <outcome>
inactive

$$$$
>  <compound>
COC(=O)c1cc2ccsc2n1Cc1cccc(F)c1

>  <tested system>
Golgi-associated PDZ and coiled-coil motif-containing protein (Homo sapiens)

>  <outcome>
inactive

$$$$

# input Dear colleague, I am looking for the recorded outcome of the following compound: COc1ccc(NC(=O)CC(CC(=O)O)c2cc(OC)c(OC)c(OC)c2)cc1 (stereo not given)
# output inactive

# input Also check `O=C(Nc1cccc(C(=O)N2CCCCC2)c1)C1CC1`
# output inactive

# input Also check `CCc1nnc(NS(=O)(=O)c2ccc(N3C(=O)c4ccccc4C3=O)cc2)s1`
# output inactive

# input Also check `O=C(NCc1ccncc1)C(=O)N/N=C/c1ccccn1`
# output inactive

# input Also check `CC(=O)Nc1sc2c(c1C(N)=O)CCC2`
# output inactive

# input Also check `COC(=O)c1cc(S(=O)(=O)NCCN2CCN(c3ccccc3F)CC2)c[nH]1`
# output inactive

---

tested system: Golgi-associated PDZ and coiled-coil motif-containing protein (Homo sapiens)
test protocol: blockers of CAL PDZ–TMR peptide complex – biochemical, fluorescence polarization, untagged CAL PDZ, cherry-pick, set 2, dose response (AID 602254);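 further: more negative means stronger blocking of peptide binding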
setup conditions: Purified CAL PDZ; series mostly up to 60 µM
Among all 1,000 compounds or so, fewer than 10 were called active. A selection follows. Measured potencies and affinities stand elsewhere.

>  <smiles representation>
Cc1ccc(C(=O)Nc2cccc(C(=O)N3CCOCC3)c2)cc1Cl

>  <tested system>
Golgi-associated PDZ and coiled-coil motif-containing protein (Homo sapiens)

>  <outcome>
inactive

$$$$
>  <smiles representation>
N#Cc1c(N)c(C#N)c(-c2ccc(O)cc2)c2c1CCCC2

>  <tested system>
Golgi-associated PDZ and coiled-coil motif-containing protein (Homo sapiens)

>  <outcome>
inactive

$$$$
>  <smiles representation>
COc1ccc(OCC(=O)Nc2ccccc2C(=O)N2CCOCC2)cc1

>  <tested system>
Golgi-associated PDZ and coiled-coil motif-containing protein (Homo sapiens)

>  <outcome>
inactive

$$$$

---

tested system: Golgi-associated PDZ and coiled-coil motif-containing protein (Homo sapiens) (UniProt Q9HD26)
test protocol: blockers of CAL PDZ–TMR peptide complex – biochemical, fluorescence polarization, untagged CAL PDZ, cherry-pick, set 2, dose response (AID 602254);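 further: more negative means stronger blocking of peptide binding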
setup conditions: Purified CAL PDZ; series mostly up to 60 µM
Screen size: about 1,000 compounds; fewer than 10 were called active. A selection follows. Results with a measured potency or affinity are listed apart.
result type: outcome

// solved cases for outcome follow
>  <compound>
CCCNC(=O)C1CCC(CNS(=O)(=O)c2ccc3c(c2)CC(C)N3C(C)=O)CC1 (stereo not drawn)

>  <outcome>
inactive

$$$$
>  <compound>
O=C(CNC(=O)CNC(=O)c1ccc(Cl)cc1Cl)NCc1cccc(Cl)c1

>  <outcome>
inactive

$$$$
>  <compound>
O=C(Nc1cccc(O)c1)c1ccc(NC(=O)C2CCCO2)cc1 (stereo not drawn)

>  <outcome>
inactive

$$$$
>  <compound>
COC(=O)c1ccc(CN2C(=O)c3ccccc3S2(=O)=O)cc1

>  <outcome>
inactive

$$$$
>  <compound>
Cc1ccccc1C(=O)c1cccn1CC(=O)NCCC1=CCCCC1

>  <outcome>
inactive

$$$$
>  <compound>
COc1ccc(/C=N/NC(=O)CNC(=O)c2ccncc2)cc1OC

>  <outcome>
inactive

$$$$
>  <compound>
CN(C(=O)c1cccc(C(F)(F)F)c1)C1CCCc2ccccc21 (stereo not drawn)

>  <outcome>
inactive

$$$$
>  <compound>
CS(=O)(=O)c1ccc(C(=O)NC2CCCc3ccccc32)cc1 (stereo not drawn)

>  <outcome>
inactive

$$$$

# input Dear colleague, I am looking for the recorded outcome of the following compound: `Cc1cc(Br)ccc1NC(=O)CN1CCN(c2ccccn2)CC1`
# output inactive

# input Also check CC(C)c1ccc(NC2CCCN(C(=O)c3ccnn3C)C2)cc1 (stereo not drawn)
# output inactive

# input Also check `O=C(c1ccc(-c2ccccc2)cc1)N1CCN(c2ccccn2)CC1`
# output inactive

# input Also check COc1ccc(OCCSc2nnc(C(C)NC(=O)c3ccccc3F)n2C)cc1 (stereo not drawn)
# output inactive
